Target: p70S6K (T412E mutant) (Homo sapiens (Human), UniProt P23443, T412E)
Sequence (P23443 whole entry T412E): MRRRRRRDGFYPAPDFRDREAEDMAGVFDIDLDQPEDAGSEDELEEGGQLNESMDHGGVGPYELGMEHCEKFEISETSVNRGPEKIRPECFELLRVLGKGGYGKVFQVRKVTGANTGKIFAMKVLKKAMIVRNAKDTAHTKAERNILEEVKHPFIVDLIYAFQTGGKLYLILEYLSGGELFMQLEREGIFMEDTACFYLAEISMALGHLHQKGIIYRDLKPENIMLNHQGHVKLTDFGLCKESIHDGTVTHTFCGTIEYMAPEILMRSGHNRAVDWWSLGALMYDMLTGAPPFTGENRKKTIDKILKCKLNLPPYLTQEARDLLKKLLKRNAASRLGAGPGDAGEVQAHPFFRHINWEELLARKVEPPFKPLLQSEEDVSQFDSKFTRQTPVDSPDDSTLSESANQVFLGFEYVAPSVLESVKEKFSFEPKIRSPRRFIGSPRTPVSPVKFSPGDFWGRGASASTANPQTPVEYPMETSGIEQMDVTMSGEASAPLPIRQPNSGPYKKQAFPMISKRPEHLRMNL
Experiment: p70S6K enzyme assay
Type: biochemical
Conditions: 24 μM ATP, 90 min at 25° C., Caliper mobility shift
endpoint_label: IC50

[[record]]
molecule = "CC(C)NC[C@@H](Nc1ncnc2c(C(N)=O)ccnc12)c1ccc(Cl)c(F)c1"
target_or_system = "p70S6K (T412E mutant) (Homo sapiens (Human), UniProt P23443, T412E)"
result = "0.025 to 0.1 µM"

[[record]]
molecule = "CCNC[C@@H](Nc1ncnc2c(C(N)=O)ccnc12)c1cc(F)cc(C(F)(F)F)c1"
target_or_system = "p70S6K (T412E mutant) (Homo sapiens (Human), UniProt P23443, T412E)"
result = "0.025 to 0.1 µM"

[[record]]
molecule = "NC(=O)c1cccc2c(NCc3ccc(C(F)(F)F)cn3)nnnc12"
target_or_system = "p70S6K (T412E mutant) (Homo sapiens (Human), UniProt P23443, T412E)"
result = "> 1 µM"

[[record]]
molecule = "CNC[C@@H](Nc1ncnc2c(C(N)=O)ccnc12)c1cc(F)cc(C(F)(F)F)c1"
target_or_system = "p70S6K (T412E mutant) (Homo sapiens (Human), UniProt P23443, T412E)"
result = "< 0.025 µM"

[[record]]
molecule = "COc1cc([C@@H](CN2CCC2)Nc2nnnc3c(C(N)=O)cccc23)ccc1Cl"
target_or_system = "p70S6K (T412E mutant) (Homo sapiens (Human), UniProt P23443, T412E)"
result = "< 0.025 µM"


Short answer for `CN(C)C[C@@H](Nc1nnnc2c(C(N)=O)cccc12)c1ccc(Cl)c(C#N)c1` : IC50 was 0.025 to 0.1 µM

Kindly note the recorded IC50 for `Cc1cc([C@@H](CN2CCC2)Nc2ncnc3c(C(N)=O)ccnc23)ccc1Cl` , which is < 0.025 µM

Lab note: `CNC[C@@H](Nc1ncnc2c(C(N)=O)ccnc12)c1ccc(Cl)cc1` gave IC50 of < 0.025 µM

The reported IC50 of the molecule NC(=O)c1cccc2c(NC3CNCCC3c3ccc(C(F)(F)F)cc3)nnnc12 (stereo not shown) was < 0.025 µM

Lab note: `CNC[C@@H](Nc1ncnc2c(C(N)=O)ccnc12)c1cccc(Br)c1` gave IC50 of < 0.025 µM

Lab book: IC50 of `CNC[C@@H](Nc1ncnc2c(C(N)=O)nccc12)c1ccc(C(C)C)cc1` noted as 0.025 to 0.1 µM

In plain terms, `CNC[C@@H](Nc1ncnc2c(C(N)=O)ccnc12)c1ccc(F)c(Br)c1` has a documented IC50 of < 0.025 µM

// IC50 lookup, molecule = `CNC[C@@H](Nc1ncnc2c(C(N)=O)ccnc12)c1ccc(C)c(C(F)(F)F)c1` , result: < 0.025 µM

Record NC(=O)c1ccnc2c(NC3CNCCC3c3ccc(F)c(Cl)c3)ncnc12 (stereo not shown) , field IC50: 0.025 to 0.1 µM

`NC(=O)c1cccc2c(N[C@H](CN3CCC3)c3ccc(F)c(C(F)(F)F)c3)nnnc12` has a reported IC50 of < 0.025 µM

Per the records, this molecule ( `NC(=O)c1ccnc2c(N[C@H](CN3CCC3)c3ccc(C(F)(F)F)cc3)ncnc12` ) has IC50 equal to < 0.025 µM
